These data points were gathered from PubChem BioAssay (NCI).

# Test system: K-562 leukemia
# assay.info: NCI tumour cell line growth inhibition, 48 h
As shown below, each of these compounds has a reported GI50 value.

O=C(Nc1ccc(F)cc1F)c1cc(F)ccc1O    2410 nM
NC(=O)c1c(Br)n(C2OC(CO)C(O)C2O)c2ncnc(N)c12 (stereo not given)    1430 nM
O=C(NC1CCCCC1)OCc1c(COC(=O)NC2CCCCC2)c(-c2ccc(Cl)c(Cl)c2)n2c1CCC2    4830 nM
CC(C)(C)C(=O)OCCNc1nc(-c2ccccc2)nc2ccccc12    2110 nM
COc1ccc(C2=C(c3cn(C)c4ccccc34)C(=O)OC2)cc1OC    441 nM
COc1cc2c(cc1O)CC[C@@H]1[C@@H]2CC[C@]2(C)[C@@H](OCCCN(C)C)CC[C@@H]12    100 nM
COc1ccc(OC)c(/C=C/C(=O)N/N=C/c2ccccc2)c1    488 nM
COC(=O)c1c(C)c2n(c1C)C(=O)C(c1ccccc1)=C2    45300 nM

Ask: Look up GI50 of Cc1ccc(C2C3Cc4ccccc4C3=NN2c2ccc(S(=O)(=O)NC(=O)NC3CCCCC3)cc2)cc1 (stereo not given) and report it.
Result: 11500 nM

Ask: Answer with the recorded GI50 of `O=C1OCC(C#Cc2ccccc2)=C1Br` only.
Result: 2630 nM
